System: UniProt Q5T2D3
Sequence (whole entry): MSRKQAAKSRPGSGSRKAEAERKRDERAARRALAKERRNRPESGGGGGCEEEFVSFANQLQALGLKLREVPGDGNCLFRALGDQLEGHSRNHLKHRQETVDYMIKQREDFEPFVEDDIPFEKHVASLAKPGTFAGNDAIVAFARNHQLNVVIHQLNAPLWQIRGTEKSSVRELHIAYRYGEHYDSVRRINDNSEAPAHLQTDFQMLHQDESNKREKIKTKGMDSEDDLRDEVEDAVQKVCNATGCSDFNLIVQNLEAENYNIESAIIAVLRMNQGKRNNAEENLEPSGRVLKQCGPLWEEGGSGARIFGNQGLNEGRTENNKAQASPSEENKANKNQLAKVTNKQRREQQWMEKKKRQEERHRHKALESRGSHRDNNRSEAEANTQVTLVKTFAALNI
Protocol Text: log2 ratio of Biotin-Ahx-Ub-VS probe labelling (fragment/DMSO); higher = less target engagement (more negative = stronger competition), active = hit call of the paper (q ≤ 0.05, log2 ratio ≤ -1)
Stated Conditions: compound concentration: 200 uM; treatment time: 3 h
Assign Met whenever log2 ratio of Biotin-Ahx-Ub-VS probe labelling does not fall below -0.4; assign Not met whenever it does.

1) O=C(CCl)Nc1cc(Cl)ccc1-n1cncn1 : Not met
2) CCc1c[nH]c(CNC(=O)CCl)n1.Cl : Met
3) Cc1ccc(N(C(=O)CCl)C2C=CS(=O)(=O)C2)cc1 (stereo not drawn) : Met
4) Cc1conc1C1CN(C(=O)CCl)C1 : Not met
5) CCC(NC(=O)CCl)c1ccc(Cl)cc1 (stereo not drawn) : Met
6) O=C(CCl)NCCc1cccc2ccccc12 : Met
7) N#Cc1cnn(-c2ccccc2)c1NC(=O)CCl : Met
8) O=C(CCl)N1CCCCC12CCOCC2 : Not met
9) Cc1noc(N2CCN(C(=O)CCl)CC2)n1.Cl : Not met
10) Cl.O=C(CCl)N1CCc2ncncc2C1 : Met
11) O=C(CCl)N1CCOC(CCc2ccccc2)C1 (stereo not drawn) : Met
12) NS(=O)(=O)c1ccc(Cl)c(NC(=O)CCl)c1 : Not met
13) Cc1ccc(CNC(=O)CCl)nc1C.Cl : Met
14) O=C(CCl)Nc1cc2c(cc1Cl)OCCCO2 : Met
15) O=C(CCl)NC1CCN(C(=O)C2CCCCC2)CC1 : Met
16) Cc1ccc(CN(CCO)C(=O)CCl)cc1 : Not met
17) Cl.Cn1c(CNC(=O)CCl)nc2cccnc21 : Met
18) O=C(CCl)N1CCC(c2nc3ccccc3o2)CC1 : Met
19) Cc1ccn2cc(CNC(=O)CCl)nc2c1.Cl : Not met
20) Cl.Cn1nccc1C(NC(=O)CCl)c1ccccc1 (stereo not drawn) : Met
21) Cc1cccc(C(CNC(=O)CCl)N2CCOCC2)c1.Cl (stereo not drawn) : Met
22) Cl.O=C(CCl)NCc1cc2c(nc1O)CCCC2 : Met
23) Cl.O=C(CCl)NCc1ccnc(Oc2ccccc2F)c1 : Met
24) O=C(CCl)N1CCc2ccccc2C(O)C1 (stereo not drawn) : Not met
25) Cc1nc(-c2cccc(NC(=O)CCl)c2)cs1 : Met
26) Cc1nc(CC2CCN(C(=O)CCl)CC2)no1 : Not met
